System: SARS-CoV-2-specific CD4+ T cells (OX40+CD137+) in PBMC; further: unit not given here
Format: cell-based, human
Measurement Context: CD4+ T cell epitopes identified by AIM assay; total response summed over donors
Would you mind labelling by Sum of response? At or over 500 is Yes, under is No.

Please review the following examples before continuing.
>  <Input Sequence>
CPFGEVFNATRFASV

>  <Group Label>
No

$$$$
>  <Input Sequence>
KKRWQLALSKGVHFV [SEQ ID NO 250]

>  <Group Label>
No

$$$$
>  <Input Sequence>
VFAQVKQIYKTPPIK

>  <Group Label>
No

$$$$
>  <Input Sequence>
YIRVGARKSAPLIEL [SEQ ID NO 256]

>  <Group Label>
Yes

$$$$
>  <Input Sequence>
NFSQILPDPSKPSKR

>  <Group Label>
Yes

$$$$

// inclusive: Sum of response at least 500? input: `GINASVVNIQKEIDR`
No

// inclusive: Sum of response at least 500? input: `IGINITRFQTLLALH`
No

// inclusive: Sum of response at least 500? input: `CEFQFCNDPFLGVYY`
Yes

// inclusive: Sum of response at least 500? input: `CAQKFNGLTVLPPLL`
Yes

// inclusive: Sum of response at least 500? input: KVTFFPDLNGDVVAI [SEQ ID NO 257]
No

// inclusive: Sum of response at least 500? input: `NLLLQYGSFCTQLNR`
Yes

// inclusive: Sum of response at least 500? input: `CTFEYVSQPFLMDLE`
Yes

// inclusive: Sum of response at least 500? input: `SNFRVQPTESIVRFP`
No

// inclusive: Sum of response at least 500? input: `TQLNRALTGIAVEQD`
No

// inclusive: Sum of response at least 500? input: `ELDKYFKNHTSPDVD`
No
